Give measured perturbation Mahalanobis distance for each item. Keep answers brief.
System: MCF10A
measurement.protocol: perturbation Mahalanobis distance of morphological profile vs DMSO controls (Mahalanobis distance (SD units)); higher = stronger morphological change, active = 7 or more
reported.conditions: screen batch: Batch1_Mahalanobis_Distance; 72 h
Just the number, please, no unit attached.

Entry COCCCC/C(=N\OCCN)c1ccc(C(F)(F)F)cc1 [Fluvoxamine] (3.9 µM) : reported perturbation Mahalanobis distance = ?
2.43

Now try OC(CCN1CCCCC1)(c1ccccc1)C1CCCCC1 (stereo unspecified) [Trihexyphenidyl] (3.3 µM) .
1.96

Now try CC/C(=C(\c1ccccc1)c1ccc(OCCN(C)C)cc1)c1ccccc1 [Tamoxifen] (6.7 µM) .
2.61

Now try NC(=O)N[C@@H](CCC(=O)O)C(=O)O [Carglumic Acid] (68.4 µM) .
2.14

Now try CCCCc1oc2ccc(NS(C)(=O)=O)cc2c1C(=O)c1ccc(OCCCN(CCCC)CCCC)cc1 [Dronedarone] (1.3 µM) .
3.58

Now try CCN(CC)C(=S)S [Sodium Diethyldithiocarbamate Trihydrate] (10 µM) .
3.67

Now try N=c1nc(N2CCCCC2)cc(N)n1O [Minoxidil] (6 µM) .
6.53

Now try COc1ccc(C[C@@H]2c3cc(OC)c(OC)cc3CC[N@+]2(C)CCC(=O)OCCCCCOC(=O)CC[N@@+]2(C)CCc3cc(OC)c(OC)cc3[C@H]2Cc2ccc(OC)c(OC)c2)cc1OC [Cisatracurium Besylate] (18.1 µM) .
5.34

Now try Nc1nnc(-c2cccc(Cl)c2Cl)c(N)n1 [Lamotrigine] (54.6 µM) .
2.15

Now try N[C@@H](CC(=O)N1CCn2c(nnc2C(F)(F)F)C1)Cc1cc(F)c(F)cc1F [Sitagliptin] (4.8 µM) .
2.76

Now try CN1CCN(CCCN2c3ccccc3Sc3ccc(C(F)(F)F)cc32)CC1 [Trifluoperazine] (0.12 µM) .
1.97

Now try CCOC(=O)C1=C[C@@H](OC(CC)CC)[C@H](NC(C)=O)[C@@H](N)C1 [Oseltamivir] (1 µM) .
2.31

Now try CCC(CC)O[C@@H]1C=C(C(=O)O)C[C@H](N)[C@H]1NC(C)=O [Oseltamivir Acid] (6.45 µM) .
2.37

Now try Cc1cn[nH]c1 [Fomepizole] (299.6 µM) .
2.14

Now try CN(C)CC[C@@H](c1ccc(Cl)cc1)c1ccccn1 [Dexchlorpheniramine] (0.15 µM) .
2.03

Now try Clc1ccc2c(c1)C(N1CCNCC1)=Nc1ccccc1O2 [Amoxapine] (9.6 µM) .
2.24
